Target: UniProtKB O97467
Sequence (O97467 whole entry): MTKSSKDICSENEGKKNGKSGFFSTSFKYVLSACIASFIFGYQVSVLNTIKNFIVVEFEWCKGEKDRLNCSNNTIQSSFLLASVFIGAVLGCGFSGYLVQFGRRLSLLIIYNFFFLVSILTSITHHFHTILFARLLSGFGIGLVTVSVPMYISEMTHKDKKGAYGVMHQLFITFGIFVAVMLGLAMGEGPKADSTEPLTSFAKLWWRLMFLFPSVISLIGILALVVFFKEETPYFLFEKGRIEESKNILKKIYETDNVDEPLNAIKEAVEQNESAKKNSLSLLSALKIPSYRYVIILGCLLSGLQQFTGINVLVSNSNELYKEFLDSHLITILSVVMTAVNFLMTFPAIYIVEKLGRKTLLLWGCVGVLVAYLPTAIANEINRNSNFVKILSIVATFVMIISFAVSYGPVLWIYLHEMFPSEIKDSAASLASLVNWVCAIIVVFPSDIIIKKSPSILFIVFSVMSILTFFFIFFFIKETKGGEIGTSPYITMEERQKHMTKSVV
Assay: Inhibition of [3H]glucose uptake at Plasmodium falciparum HT expressed in Xenopus laevis oocytes
ATTRIBUTE_MEASURED: Ki (µM)

# example entries with known answers
COMPOUND | U | Ki
C=CCCCCCCCCCO[C@H]1[C@H](O)[C@@H](CO)OC(O)[C@@H]1O (stereo partly drawn) | µM | 26
C=CCCCCCCCCCOC[C@H]1OC(O)[C@H](O)[C@@H](O)[C@@H]1O (stereo partly drawn) | µM | 2000

a: C=CCCCCCCCCCO[C@H](CO)[C@H]1OC(O)[C@H](O)[C@H]1O (stereo partly drawn)
b: C=CCCCCCCCCCO[C@H]1C(O)O[C@H](CO)[C@@H](O)[C@@H]1O (stereo partly drawn)
### Prompt Among a and b , which shows a numerically higher Ki result? Your answer should be the label of the entry you select.
### Response a
